# measuredOn: Akt3 (Homo sapiens)
# Construct: unspecified tag, removed (detagged) (cleaved yes); purchased SignalChem and Proteros (Akt3); Merck Millipore (PDK1) 14-452 (PDK1); none given for Akt3
# experiment: Akt activation assay (PDK1-mediated activation, LANCE Ultra crosstide TR-FRET), Akt3
# Format: biochemical
# conditions: read-out: Biological Assay 1 IC50 (nM) Akt3
Binarize IC50 at 200 nM; below is 1.0, at or above is 0.0.

{"columns": ["compound", "measuredOn", "category"],
 "data": [
  ["COC1(OC)CCC(CC(=O)Nc2cnc(-c3ccc(C4(N)COC4)cc3)c(-c3ccccc3)c2)CC1", "Akt3 (Homo sapiens)", 1.0],
  ["CCC(=O)N(C)[C@H]1CC[C@H](CC(=O)Nc2cnc(-c3ccc(C4(N)CC4)c(F)c3)c(-c3ccccc3)c2)CC1 [Example A89]", "Akt3 (Homo sapiens)", 1.0],
  ["CC(=O)N(C)[C@H]1CC[C@H](CC(=O)Nc2cc(-c3ccccc3)c(-c3ccc([C@]4(N)C[C@](C)(O)C4)c(F)c3)nn2)CC1", "Akt3 (Homo sapiens)", 1.0],
  ["CC(=O)N[C@H]1CC[C@H](CC(=O)Nc2cnc(-c3ccc([C@H](C)N)cc3)c(-c3ccccc3)c2)CC1", "Akt3 (Homo sapiens)", 0.0],
  ["CCC(=O)N(C)[C@H]1CC[C@H](CC(=O)Nc2cc(-c3ccccc3)c(-c3ccc(C4(N)CC4)cc3)nn2)CC1", "Akt3 (Homo sapiens)", 1.0],
  ["CC1(C(=O)N[C@H]2CC[C@H](CC(=O)Nc3cnc(-c4ccc(C(C)(C)N)cc4)c(-c4ccccc4)c3)CC2)CC1", "Akt3 (Homo sapiens)", 1.0],
  ["CC(C)(N)c1ccc(-c2cnc(NC(=O)C[C@H]3CC[C@H](N4CCCC4=O)CC3)cc2-c2ccccc2)cc1", "Akt3 (Homo sapiens)", 1.0],
  ["CN(C1CCC(CC(=O)Nc2cnc(-c3ccc(C(C)(C)N)cc3)c(-c3ccccc3)c2)CC1)C1(C)COC1 (stereo not shown)", "Akt3 (Homo sapiens)", 0.0],
  ["CC(=O)N(CC(F)(F)F)[C@H]1CC[C@H](CC(=O)Nc2cc(-c3ccccc3)c(-c3ccc([C@]4(N)C[C@](C)(O)C4)cc3)cn2)CC1", "Akt3 (Homo sapiens)", 1.0],
  ["COC(=O)N(C)[C@H]1CC[C@H](CC(=O)Nc2cnc(-c3ccc(C(C)(C)N)c(F)c3)c(-c3ccccc3)c2)CC1", "Akt3 (Homo sapiens)", 0.0],
  ["CN(C(=O)CC(C)(C)C)[C@H]1CC[C@H](CC(=O)Nc2cnc(-c3ccc(C(C)(C)N)cc3)c(-c3ccccc3)c2)CC1", "Akt3 (Homo sapiens)", 0.0]
]}

---

# measuredOn: p-Akt3 in WM115 cells (Homo sapiens, UniProt Q9Y243)
# Construct: SureFire assays to detect cellular p-Akt1, p-Akt2 and p-Akt3 levels in WM115 cells (Akt2/3) and LNCaP cells (Akt1); endogenous in cells; host or cells: WM115 (ECACC 91061232), insulin-stimulated
# Sequence (Q9Y243 whole entry): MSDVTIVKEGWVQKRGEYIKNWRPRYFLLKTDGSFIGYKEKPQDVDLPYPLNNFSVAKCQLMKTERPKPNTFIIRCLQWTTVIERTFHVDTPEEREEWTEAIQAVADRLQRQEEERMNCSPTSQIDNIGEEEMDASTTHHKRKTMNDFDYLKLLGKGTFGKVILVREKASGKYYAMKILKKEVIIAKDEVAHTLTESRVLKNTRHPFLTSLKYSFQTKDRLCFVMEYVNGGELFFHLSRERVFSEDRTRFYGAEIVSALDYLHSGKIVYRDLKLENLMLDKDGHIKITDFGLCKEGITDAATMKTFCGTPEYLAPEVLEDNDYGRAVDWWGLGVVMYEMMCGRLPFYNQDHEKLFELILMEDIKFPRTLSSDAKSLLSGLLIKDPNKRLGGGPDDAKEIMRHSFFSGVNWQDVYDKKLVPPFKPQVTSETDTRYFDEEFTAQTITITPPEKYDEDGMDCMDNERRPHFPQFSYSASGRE
# experiment: Phospho-Akt cellular SureFire assay, p-Akt3 in WM115 cells
# Assay type: cell-based
# conditions: insulin stimulated, read-out: Biological Assay 2 IC50 (nM) Akt3 WM115
experimentalReadout: IC50 (nM)

{"columns": ["molecularString", "observed"],
 "data": [
  ["C[C@]1(O)C[C@@](N)(c2ccc(-c3nnc(NC(=O)C[C@H]4CC[C@H](N5CCOC5=O)CC4)cc3-c3ccccc3)cc2)C1", 8],
  ["CC(=O)N(C)[C@H]1CC[C@H](CC(=O)Nc2cc(-c3ccsc3)c(-c3ccc([C@]4(N)C[C@](C)(O)C4)cc3)cn2)CC1", 9],
  ["CC(=O)N(C)[C@H]1CC[C@H](CC(=O)Nc2cnc(-c3ccc(C(C)(C)N)nc3)c(-c3ccccc3)c2)CC1", 1700],
  ["CC(=O)N(C(C)C)[C@H]1CC[C@H](CC(=O)Nc2cc(-c3ccccc3)c(-c3ccc([C@]4(N)C[C@](C)(O)C4)cc3)cn2)CC1", 57],
  ["CC(C)(N)c1ccc(-c2ncc(NC(=O)C[C@H]3CC[C@H](NC(=O)C4CC4)CC3)cc2-c2ccsc2)cc1", 380],
  ["COCCN(C)[C@H]1CC[C@H](CC(=O)Nc2cnc(-c3ccc(C4(N)CCC4)cc3)c(-c3ccsc3)c2)CC1", 180]
]}
